Listed next: entries and their corresponding melting point.
reported property: melting point

In [3]: df
Out[3]:
                                   molecule  reported_result
0  NC1(C(=O)O)C(OC(c2ccccc2)c2ccccc2)CC2C1C2(F)C(=O)O (stereo not shown)         > 230 °C
1  NC1(C(=O)O)C(OCc2ccccc2)CC2C1C2(F)C(=O)O (stereo not shown)         > 226 °C
2  CC(O[C@@H]1C[C@@H]2[C@H]([C@]1(N)C(=O)O)[C@@]2(F)C(=O)O)c1ccc2ccccc2c1 (relative stereo) [57]         > 185 °C
3  CCOC(=O)[C@@]1(N)[C@H]2[C@@H](C[C@H]1OCc1ccc(Cl)c(Cl)c1)[C@]2(F)C(=O)O         > 233 °C

These measurements were taken from patent US7157594B2.
